- SYSTEM_TESTED: p53/MDM2 complex (Homo sapiens)
- Construct: Test performed on cell lysate of human glioblastoma (GBM) cells U343MG; endogenous in cells; host or cells: U343MG human glioblastoma cells (lysate)
- Sequence (Q00987 whole entry, one chain of several): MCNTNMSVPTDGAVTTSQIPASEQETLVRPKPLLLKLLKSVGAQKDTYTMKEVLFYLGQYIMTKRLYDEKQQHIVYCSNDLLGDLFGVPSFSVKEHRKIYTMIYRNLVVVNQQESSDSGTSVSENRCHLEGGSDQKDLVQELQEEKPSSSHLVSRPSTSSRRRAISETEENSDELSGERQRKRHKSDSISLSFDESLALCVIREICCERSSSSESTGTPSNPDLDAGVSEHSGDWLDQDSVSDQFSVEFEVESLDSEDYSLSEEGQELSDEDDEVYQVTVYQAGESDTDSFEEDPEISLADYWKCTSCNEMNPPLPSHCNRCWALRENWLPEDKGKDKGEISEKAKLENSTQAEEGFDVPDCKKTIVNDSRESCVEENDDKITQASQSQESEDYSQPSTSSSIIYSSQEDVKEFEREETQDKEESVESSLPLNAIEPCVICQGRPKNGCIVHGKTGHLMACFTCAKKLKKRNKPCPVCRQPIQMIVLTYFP
- METHOD_NOTES: Inhibitory effect on p53/MDM2 complex binding, cell lysate of human glioblastoma U343MG cells
- EXPERIMENTAL_PARAMETERS: cell lysate of human glioblastoma (GBM) cells U343MG
MEASUREMENT_LABEL: IC50 (nM)
Dear colleague, please return just the value in nM, with no unit written.

Please review the entries below; each comes with its answer.
# MOLECULE, OBS_VALUE
records = [
    ("CC(=O)OCC1=C(C(=O)OC(C)(C)C)N2C(=O)C(NC(=O)COc3ccc4c(c3)/C(=N\\O)Cc3c-4[nH]c4ccc(F)cc34)C2SC1 (stereo not shown)", 222),
    ("CC(=O)OCC1=C(C(=O)OC(C)(C)C)N2C(=O)C(NC(=O)COc3ccc4c(c3)S(=O)(=O)NCc3c-4[nH]c4ccc(F)cc34)C2SC1 (stereo not shown)", 197),
]

Any idea what IC50 was measured for `O=C(COc1ccc2c(c1)S(=O)(=O)CCc1c-2[nH]c2ccc(F)cc12)NCc1ccc(F)c(F)c1` ?
920

Try this molecule next: CC(=O)OCC1=C(C(=O)OC(C)(C)C)N2C(=O)C(NC(=O)COc3ccc4c(c3)S(=O)(=O)Nc3c-4[nH]c4ccc(F)cc34)C2SC1 (stereo not shown)
220

Next record, please: COc1ccc(COC(=O)C2N3C(=O)C(NC(=O)COc4ccc5c(c4)S(=O)(=O)Nc4c-5[nH]c5ccc(Br)cc45)C3SC2(C)C)cc1 (stereo not shown)
120

----------
Below: a set of entries, each annotated with reported inhibition at 10 µM.
- SYSTEM_TESTED: p53/MDM2 complex (Homo sapiens)
- Construct: Test performed on cell lysate of human glioblastoma (GBM) cells U343MG; endogenous in cells; host or cells: U343MG human glioblastoma cells (lysate)
- METHOD_NOTES: Inhibitory effect on p53/MDM2 complex binding, cell lysate of human glioblastoma U343MG cells
- EXPERIMENTAL_PARAMETERS: 10 uM; cell lysate of human glioblastoma (GBM) cells U343MG; read-out: % inhibition at 10 uM of p53/MDM2 complex binding

# MOL, OBS_VALUE
records = [
    ("COc1ccc2c(c1)-c1[nH]c3ccc(Cl)cc3c1CO2", "< 5%"),
    ("Clc1ccc2[nH]c3c(c2c1)COc1ccccc1-3", "< 5%"),
]

Now take the following compound into account.
# query: inhibition at 10 µM of entry `CC(=O)OCC1=C(C(=O)O)N2C(=O)[C@@H](NC(=O)COc3ccc4c(c3)CCc3c-4[nH]c4ccc(F)cc34)[C@H]2SC1`
< 5%

----------
Listed next: entries and their corresponding IC50.
- SYSTEM_TESTED: p53/MDM2 complex (Homo sapiens)
- Construct: Test performed on cell lysate of human glioblastoma (GBM) cells U343MG; endogenous in cells; host or cells: U343MG human glioblastoma cells (lysate)
- METHOD_NOTES: Inhibitory effect on p53/MDM2 complex binding, cell lysate of human glioblastoma U343MG cells
- EXPERIMENTAL_PARAMETERS: cell lysate of human glioblastoma (GBM) cells U343MG
Dear colleague, please return just the value in nM, with no unit written.

Consider the following illustrative entries.
# COMPOUND, MEASUREMENT_LABEL, UNITS_SYMBOL, OBS_VALUE
measured = [
    ("CCOC(=O)/C(COc1ccc2c(ccc3c4cc(Cl)ccc4n(CCCN(C)C)c23)c1)=N/OC", "IC50", "nM", 2700),
    ("CNC(=O)C(CCCNC(=O)OCc1ccccc1)NC(=O)COc1ccc2c(c1)NCc1c-2[nH]c2ccc(F)cc12 (centres unmarked)", "IC50", "nM", 1550),
    ("CN(C)C(=O)C(CCCNC(=O)OCc1ccccc1)NC(=O)COc1ccc2c(c1)S(=O)(=O)NCc1c-2[nH]c2ccc(F)cc12 (centres unmarked)", "IC50", "nM", 620),
    ("CC(C)(C)OC(=O)C1N2C(=O)C(NC(=O)COc3ccc4c(c3)S(=O)(=O)NCc3c-4[nH]c4ccc(F)cc34)C2SC1(C)C (centres unmarked)", "IC50", "nM", 292),
    ("COc1cc2c(cc1OC)-c1c(c3c(N)cccc3n1CCCN(C)C)CCC2", "IC50", "nM", 12700),
]

What value of IC50 has been reported for the following compound? CC(=O)OCC1=C(C(=O)OC(C)(C)C)N2C(=O)C(NC(=O)COc3ccc4c(c3)OCc3c-4[nH]c4ccc(F)cc34)C2S(=O)(=O)C1 (centres unmarked)
120

Item: CCOC(=O)CO/N=C1/Cc2c([nH]c3ccc(F)cc23)-c2ccc(OCC(=O)NC3C(=O)N4C(C(=O)OC(C)(C)C)=C(COC(C)=O)CSC34)cc21 (centres unmarked)
180

Now consider CCNC(=O)C(CCCNC(=O)OCc1ccccc1)NC(=O)CC1C(NC(=O)COc2ccc3c(c2)S(=O)(=O)Cc2c-3[nH]c3ccc(F)cc23)C(=O)N1CC(=O)OCc1ccc(OC)cc1 (centres unmarked) and answer again.
150
